test: Metabolic stability in human liver microsomes assessed as half life for 30 mins by LC-MS/MS analysis; type: ADME, Microsome
endpoint label: half-life (min)

[
  {
    "molecule smiles": "COc1ccc(-c2cccc(-c3cc(OC)c(OC)c(OC)c3)n2)cc1C(=O)NO",
    "endpoint label": "half-life",
    "reported value": 54.8
  }
]

----------
tested on: HepG2; test: Antiproliferative activity against human HepG2 cells assessed as reduction in cell viability incubated for 48 hrs by MTT assay; details: HepG2, 48 h
pIC50: −log10 of the molar value.

[
  {
    "molecule smiles": "COc1ccc(S(=O)(=O)N(CCSC(=S)N2CCN(C)CC2)c2cc(OC)c(OC)c(OC)c2)cc1",
    "pIC50": 6.24
  }
]
